Data provenance is patent US20090203753A1.

systemUnderTest: β2 receptor (Homo sapiens, UniProt P07550)
Construct: endogenous in cells; host or cells: H292 cells
Sequence (P07550 whole entry): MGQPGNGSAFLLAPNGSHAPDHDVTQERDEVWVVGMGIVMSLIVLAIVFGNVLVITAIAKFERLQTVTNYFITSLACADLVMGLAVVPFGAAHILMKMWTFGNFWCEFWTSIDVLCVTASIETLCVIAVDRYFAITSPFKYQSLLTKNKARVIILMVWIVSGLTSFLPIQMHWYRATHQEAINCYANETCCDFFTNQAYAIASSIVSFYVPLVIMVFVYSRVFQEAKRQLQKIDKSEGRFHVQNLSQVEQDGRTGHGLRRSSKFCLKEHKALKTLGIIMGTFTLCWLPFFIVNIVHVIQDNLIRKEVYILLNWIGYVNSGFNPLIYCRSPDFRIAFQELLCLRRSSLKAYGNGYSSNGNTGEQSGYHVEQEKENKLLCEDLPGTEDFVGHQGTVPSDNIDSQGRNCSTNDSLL
assayMethodText: Alternative adrenergic β2 mediated cAMP production in H292 cells (60 minutes with test compound)
Format: cell-based
conditionSet: cAMP, 60 minutes incubation with compound, 300 μM rolipram, read-out: β2 pEC50 (converted)
Structures can show the parent of a compound that is named as a salt.
Task for the reader: assign each of the following molecules its reported EC50.
Give bare numbers, in nM.

{"molecule": "CCCCN(CCNC[C@H](O)c1ccc(O)c2[nH]c(=O)sc12)C(=O)CCOCCc1ccccc1.Cl [Example 2, Hydrochloride]", "unitSpec": "nM", "EC50": 1}
{"molecule": "CCN(CC)CCN(CCNC[C@H](O)c1ccc(O)c2[nH]c(=O)sc12)C(=O)CCOCCc1ccccc1 [Example 7]", "unitSpec": "nM", "EC50": 3.98}
{"molecule": "CCN(CC)CCN(CCNC[C@H](O)c1ccc(O)c2[nH]c(=O)sc12)C(=O)CCOCCc1cccc2ccccc12 [Example 6]", "unitSpec": "nM", "EC50": 2}
{"molecule": "CCN(CC)CCN(CCNC[C@H](O)c1ccc(O)c2[nH]c(=O)sc12)C(=O)CCOCCc1cccc(Cl)c1 [Example 9]", "unitSpec": "nM", "EC50": 3.98}
{"molecule": "CN(CCNC[C@H](O)c1ccc(O)c2[nH]c(=O)sc12)C(=O)CCOCCc1ccccc1 [Example 5, Trifluoroacetate]", "unitSpec": "nM", "EC50": 0.2}

The molecule identified as O=C(CCOCCc1ccccc1)N(CCNC[C@H](O)c1ccc(O)c2[nH]c(=O)sc12)CCc1ccccc1 [Example 4] registered its EC50 at 1.26

* * *

systemUnderTest: recombinant human α1D receptor (Homo sapiens, UniProt P25100)
Construct: expressed in transfected cells; host or cells: HEK293
Sequence (P25100 whole entry): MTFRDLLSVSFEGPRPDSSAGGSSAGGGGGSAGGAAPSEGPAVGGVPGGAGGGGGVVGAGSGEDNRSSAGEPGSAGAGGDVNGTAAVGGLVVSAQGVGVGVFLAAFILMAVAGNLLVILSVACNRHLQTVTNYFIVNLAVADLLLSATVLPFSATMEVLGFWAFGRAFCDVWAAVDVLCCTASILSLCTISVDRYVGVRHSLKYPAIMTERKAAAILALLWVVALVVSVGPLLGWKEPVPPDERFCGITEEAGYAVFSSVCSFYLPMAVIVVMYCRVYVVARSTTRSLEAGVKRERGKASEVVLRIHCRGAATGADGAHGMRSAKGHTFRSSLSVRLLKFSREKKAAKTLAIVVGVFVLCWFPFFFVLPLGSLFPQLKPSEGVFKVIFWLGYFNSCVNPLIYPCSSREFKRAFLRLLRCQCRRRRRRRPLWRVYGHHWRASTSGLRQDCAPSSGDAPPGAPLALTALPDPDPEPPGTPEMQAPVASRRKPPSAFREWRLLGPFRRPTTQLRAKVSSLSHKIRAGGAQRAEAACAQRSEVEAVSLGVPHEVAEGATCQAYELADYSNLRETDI
assayMethodText: Adrenergic α1D selectivity assay, [3H]-prazosin binding to HEK293 membranes
conditionSet: read-out: α1 bind pIC50 (converted)
I'd be grateful if you could share measured IC50 for these entries.
Answers are plain numbers, in nM.

{"compound": "CCN(CC)CCN(CCNC[C@H](O)c1ccc(O)c2[nH]c(=O)sc12)C(=O)CCOCCc1ccccc1", "IC50 (nM)": 5010}
{"compound": "CCCCN(CCNC[C@H](O)c1ccc(O)c2[nH]c(=O)sc12)C(=O)CCOCCc1ccccc1.Cl [Example 2, Hydrochloride]", "IC50 (nM)": 2510}
{"compound": "CCN(CC)CCN(CCNC[C@H](O)c1ccc(O)c2[nH]c(=O)sc12)C(=O)CCOCCc1cccc(Cl)c1", "IC50 (nM)": 2000}

# lookup: `CCN(CC)CCN(CCNC[C@H](O)c1ccc(O)c2[nH]c(=O)sc12)C(=O)CCOCCc1cccc2ccccc12` on recombinant human α1D receptor (Homo sapiens, UniProt P25100), IC50 = 2510

* * *

systemUnderTest: β2 receptor (Homo sapiens, UniProt P07550)
Construct: endogenous in cells; host or cells: H292 cells
assayMethodText: β2 mediated cAMP production in H292 cells, AlphaScreen cAMP detection (10 minutes with test compound)
Format: cell-based
conditionSet: cAMP, 10 minutes incubation with compound, 300 μM rolipram
Counter-ions that a name gives are not always drawn.
readoutLabel: EC50
Show the value, then the unit it is measured in.

Some solved cases for reference:
{"molecule": "CCN(CC)CCN(CCNC[C@H](O)c1ccc(O)c2[nH]c(=O)sc12)C(=O)CCOCCc1ccccc1 [Example 7]", "reportedResult": "2.51 nM"}
{"molecule": "CN(CCNC[C@H](O)c1ccc(O)c2[nH]c(=O)sc12)C(=O)CCOCCc1ccccc1 [Example 5, Trifluoroacetate]", "reportedResult": "0.316 nM"}
{"molecule": "O=C(CCOCCc1ccccc1)N(CCNC[C@H](O)c1ccc(O)c2[nH]c(=O)sc12)CCc1ccccc1 [Example 4]", "reportedResult": "1.26 nM"}

// switching to the query molecule
Lab book: EC50 of CCCCN(CCNC[C@H](O)c1ccc(OCc2ccccc2)c2[nH]c(=O)sc12)C(=O)CCOCCc1ccccc1 [Example 1] noted as 20 nM
